# System: NCI-H2228 parental
# Protocol text: cell viability relative to vehicle (fraction of vehicle); NCI-H2228 is an ALK-positive lung cancer line and DTP means drug-tolerant persister; higher = less growth inhibition
# Condition description: 100 nM; treatment time 6 days
Counter-ions that a name gives are not always drawn. Over roughly 2,800 compounds, “cell viability relative to vehicle” has its median near 1.1; the lowest 2% begin near 0.19. This excerpt belongs to a sample that is enriched for the lowest values.
Measure: cell viability
Just the number, please.

Which measured cell viability value corresponds to CN1CCN(C(=O)C2C(C(=O)O)[C@H]3CC[C@@H]2O3)CC1 (stereo not given in full) ? 0.955

Please give the measured cell viability for this molecule: C[C@H](CCC(=O)NCC(=O)O)[C@H]1CC[C@H]2[C@@H]3[C@H](O)C[C@@H]4C[C@H](O)CC[C@]4(C)[C@H]3CC[C@]12C [Glycochenodeoxycholic Acid] 1.02

What measured cell viability goes with CC(=O)O[C@@H]1C[C@H](O)[C@@]23CO[C@@H](O)[C@]1(C)[C@@H]2C[C@@H](O)[C@]1(C)[C@@H]3C(=O)[C@H](OC(C)=O)[C@@]2(C)[C@H](c3ccoc3)C[C@H]3O[C@]321 [Toosendanin] ? 0.147

Need cell viability, item Nc1nc(O)c2[nH]nnc2n1 [8-Azaguanine] 0.571

Record request: cell viability value, item CC(=O)c1cnc2ccc(-c3cc(Cl)c(O)c(Cl)c3)nc2c1N[C@H]1CC[C@H](CN(C)C)CC1 0.657

So what's the measured cell viability for this one? NC(=O)c1ccc(OCCCN2CC3CCCC3C2)cc1 (stereo not given) 1.17

Request the reported cell viability associated with O=C(NCCCNc1nc(Nc2cccc(CN3CCOCC3)c2)ncc1C1CC1)C1CCC1 0.937

Which cell viability is listed for CC(C)C[C@H](NC(=O)[C@H](Cc1ccccc1)NC(=O)c1cnccn1)B(O)O [Bortezomib] ? 0.067

I have this molecule here, COc1c2c(cc3c1-c1c(cc4c(c1OC)OCO4)C[C@H](C)[C@H](C)C3)OCO2 [Schisandrin C] , and I need its recorded cell viability. 0.951

What measured cell viability goes with CCCOc1ccc(/C=C2\SC(=O)NC2=O)cc1 ? 1.11

Fill blank: measured cell viability of the molecule CCNC(=O)c1noc(-c2cc(C(C)C)c(O)cc2O)c1-c1ccc(CN2CCOCC2)cc1 [Luminespib] is ____. 0.0552

I'd like to know its cell viability. The molecule in question is C[C@H]1O[C@@H](O[C@H]2CC[C@@]3(C)[C@@H](CC[C@]4(C)[C@@H]3C=C[C@]35OC[C@@]6(CCC(C)(C)C[C@H]63)[C@@H](O)C[C@]54C)[C@]2(C)CO)[C@H](O)[C@@H](O[C@@H]2O[C@H](CO)[C@@H](O)[C@H](O)[C@H]2O)[C@H]1O [Saikosaponin A] 1.11

What value of measured cell viability is listed for Cn1cc(-c2cc3c(N4CCN(c5ncc([C@@](C)(N)c6ccc(F)cc6)cn5)CC4)ncnn3c2)cn1 [Avapritinib] ? 0.846

Which measured cell viability value corresponds to C[C@@H]1CC[C@@]2(NC1)O[C@H]1C[C@H]3[C@@H]4CC=C5C[C@@H](O[C@@H]6O[C@H](CO)[C@H](O)[C@H](O[C@@H]7O[C@H](CO)[C@@H](O)[C@H](O)[C@H]7O)[C@H]6O[C@@H]6O[C@@H](C)[C@H](O)[C@@H](O)[C@H]6O)CC[C@]5(C)[C@H]4CC[C@]3(C)[C@H]1[C@@H]2C [Solasonine] ? 1.1

# get_value(readout='cell viability', item= CC(C)C(C(=O)O)N1C(=O)C(=Cc2ccc(Br)cc2)SC1=S (stereo not given) ) 1.04

Recorded cell viability of COc1c(Nc2ncc(Cl)c(N[C@H]3[C@@H](C(N)=O)[C@@H]4C=C[C@H]3C4)n2)ccc2c1CC[C@@H](N1CCOCC1)CC2 , please. 0.799

Give the measured cell viability of C(=N\NC1=NCCN1)/c1c2ccccc2c(/C=N/NC2=NCCN2)c2ccccc12 [Bisantrene] . 1.01

Returns the measured cell viability for the input molecule. Input: CC(C)C[C@H](NC(=O)[C@@H](O)[C@H](N)Cc1ccccc1)C(=O)O [Ubenimex] 1.08

What cell viability value was documented for this molecule, CCNC(=O)c1cc2c(-c3cc(C(C)(C)O)ccc3Oc3c(C)cc(F)cc3C)cn(C)c(=O)c2[nH]1 ? 0.898

Would you mind telling me what cell viability value was observed for CC(C)c1cc(-c2n[nH]c(=O)n2-c2ccc3c(ccn3C)c2)c(O)cc1O [Ganetespib] ? 0.118

# query: cell viability of entry CCCCNNC(=O)c1ccc(-c2cccc(F)c2F)cc1 1.03

Quick one: cell viability for CCNC(=O)c1noc(-c2cc(Cl)c(O)cc2O)c1-c1ccc(OC)cc1 ? 0.237

Given the molecule CCCN1CCN(c2ccc(C(=O)NC3(C(=O)NCC#N)CCCCC3)cc2)CC1 [Balicatib] , what is its reported cell viability? 1.07

// cell viability lookup, key: O=C(Nc1ccc(CN2CCOCC2)cc1)c1ccc(-c2cccc(Cl)c2)o1 0.775

// cell viability lookup, key: c1ccc(CNc2ccccc2)cc1 [N-Phenylbenzylamine] 1.16

What value of cell viability has been recorded for this entry: Nc1n[nH]c2cc(-c3ccc(=O)n(Cc4cccc(Cl)c4)c3)ccc12 1

Any idea what its cell viability is? The molecule is CC(C)C[C@H](NC(=O)[C@@H](O)[C@H](N)Cc1ccccc1)C(=O)O [Bestatin hydrochloride] 1.16

Dear colleague, I am looking for the recorded cell viability of the following molecule: CNC(=O)[C@H](Cc1ccccc1)NC(=O)[C@H](CC(C)C)[C@H](CSc1cccs1)C(=O)NO [Batimastat] 1.08

What cell viability value was documented for this molecule, C=C1CC[C@@H]2[C@](C)(CO[C@@H]3O[C@H](CO)[C@@H](O)[C@H](O)[C@H]3O)CCC[C@@]2(C)[C@@H]1CCC1=CCOC1=O [Neoandrographolide] ? 1.08

Requested field: cell viability. Item: COc1cc(N2CCC(N3CCN(C)CC3)CC2)ccc1Nc1ncc(Cl)c(-c2c[nH]c3ccccc23)n1 0.358
